Biological target: furin, P09958;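 note: purified furin at 1:10 enzyme:substrate in 50 mM HEPES pH 7.5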
Sequence (P09958 whole entry): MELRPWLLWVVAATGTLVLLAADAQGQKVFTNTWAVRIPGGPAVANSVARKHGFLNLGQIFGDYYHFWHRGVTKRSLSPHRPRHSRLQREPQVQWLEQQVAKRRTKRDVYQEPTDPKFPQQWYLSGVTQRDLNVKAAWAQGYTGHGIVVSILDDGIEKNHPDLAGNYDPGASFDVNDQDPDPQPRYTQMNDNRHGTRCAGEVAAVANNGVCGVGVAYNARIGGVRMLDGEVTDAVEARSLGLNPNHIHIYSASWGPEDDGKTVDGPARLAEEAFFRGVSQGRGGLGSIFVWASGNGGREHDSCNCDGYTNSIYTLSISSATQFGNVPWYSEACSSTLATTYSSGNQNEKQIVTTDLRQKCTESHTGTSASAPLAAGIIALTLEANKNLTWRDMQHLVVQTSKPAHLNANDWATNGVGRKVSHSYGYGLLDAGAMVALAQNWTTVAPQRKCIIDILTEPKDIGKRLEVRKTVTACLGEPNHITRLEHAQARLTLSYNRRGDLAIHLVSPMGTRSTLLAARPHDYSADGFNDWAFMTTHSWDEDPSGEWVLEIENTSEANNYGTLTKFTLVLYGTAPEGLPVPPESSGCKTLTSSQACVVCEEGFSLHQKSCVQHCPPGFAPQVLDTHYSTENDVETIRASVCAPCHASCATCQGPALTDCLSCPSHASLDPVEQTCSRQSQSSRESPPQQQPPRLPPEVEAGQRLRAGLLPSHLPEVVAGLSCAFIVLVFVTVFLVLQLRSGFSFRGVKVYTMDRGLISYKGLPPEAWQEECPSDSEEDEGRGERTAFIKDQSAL
Experiment: furin cleavage Z-score vs untreated control; higher = more cleavage, active = 3.5 or more, inactive = 1 or less, 8 variable residues between constant flanks
Conditions: 7.5 min
Some of the results follow. No count for the full screen is at hand.
// one of active, inactive, no free text

For orientation, consider the following solved cases.
CAVHCCSMSYAGNASASA [HC2015]	inactive
CAMEECSYHLAGNASASA [HC1729]	inactive
CAQRSRQVRCAGNASASA [FS-482]	inactive

Qu. Name the outcome recorded for CARHSRKKRLAGNASASA [FS-1259] in the assay.
Ans. active

Qu. In this assay, the call recorded for CATTPCSGSAAGNASASA [HC1923] was what?
Ans. inactive

Qu. For this sequence, state the assay outcome: CATTPCSGSKAGNASASA [HC1934]
Ans. inactive

Qu. Record lookup: outcome of this test for CARDRSELSPAGNASASA [HC489] ?
Ans. inactive

Qu. // return assay outcome for CARLRRGGDPAGNASASA [FS-2574]
Ans. inactive

Qu. # fetch the recorded call for CAQNVQLINTAGNASASA [HC365] here
Ans. inactive

Qu. Could you please tell me the result logged for CAAPPRRKRRAGNASASA [FS-976] in this assay?
Ans. active

Just for reference, the supplement of paper PMC3545927 is where these values come from.
